Attribution: patent US20190177417A1

# TARGET_DESC: T1, Axl protein (human, UniProt P30530 26-451)
# T1 construct: extracellular domain; also called human Axl; hAxl
# T1 sequence (looked up): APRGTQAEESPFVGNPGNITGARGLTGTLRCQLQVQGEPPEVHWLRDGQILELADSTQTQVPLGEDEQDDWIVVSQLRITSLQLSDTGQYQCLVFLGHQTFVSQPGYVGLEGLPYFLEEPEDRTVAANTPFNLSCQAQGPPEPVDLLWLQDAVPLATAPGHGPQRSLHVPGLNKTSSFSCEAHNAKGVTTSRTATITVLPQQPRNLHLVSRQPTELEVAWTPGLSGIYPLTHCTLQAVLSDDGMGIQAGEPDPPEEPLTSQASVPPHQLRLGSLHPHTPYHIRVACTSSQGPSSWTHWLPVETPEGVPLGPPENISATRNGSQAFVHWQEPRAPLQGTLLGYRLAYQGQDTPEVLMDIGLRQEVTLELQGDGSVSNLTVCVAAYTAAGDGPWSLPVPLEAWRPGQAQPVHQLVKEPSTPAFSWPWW
# EXPERIMENT_NOTES: ELISA, 1:9 dilution, pH 6.0 over pH 7.4
EXPERIMENTAL_READOUT: Affinity ELISA CPE mutant ratio (1:9, pH 6.0/7.4) (ratio)
Give bare numbers, in ratio.

The following binders each have a reported value; give each one's Affinity ELISA CPE mutant ratio (1:9, pH 6.0/7.4).
1. HC-N035I (antibody, V domains shown) VH: EVQLVQSGAEVKKPGATVKISCKVSGYSFTGHTMIWIRQPPGKGLEWIGLIKPSNGGTSYNQKFKGRVTISADKSISTAYLQWSSLKASDTAMYYCAHGHYESYFAMDYWGQGTLVTVSS VL: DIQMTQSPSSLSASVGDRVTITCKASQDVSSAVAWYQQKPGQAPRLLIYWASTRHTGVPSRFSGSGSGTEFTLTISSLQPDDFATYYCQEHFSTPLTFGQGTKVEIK
2. HC-E102I (antibody, V domains shown) VH: EVQLVQSGAEVKKPGATVKISCKVSGYSFTGHTMNWIRQPPGKGLEWIGLIKPSNGGTSYNQKFKGRVTISADKSISTAYLQWSSLKASDTAMYYCAHGHYISYFAMDYWGQGTLVTVSS VL: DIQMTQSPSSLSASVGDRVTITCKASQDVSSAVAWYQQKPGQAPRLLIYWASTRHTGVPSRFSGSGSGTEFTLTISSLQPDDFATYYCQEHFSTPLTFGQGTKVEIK
3. HC-E102F (antibody, V domains shown) VH: EVQLVQSGAEVKKPGATVKISCKVSGYSFTGHTMNWIRQPPGKGLEWIGLIKPSNGGTSYNQKFKGRVTISADKSISTAYLQWSSLKASDTAMYYCAHGHYFSYFAMDYWGQGTLVTVSS VL: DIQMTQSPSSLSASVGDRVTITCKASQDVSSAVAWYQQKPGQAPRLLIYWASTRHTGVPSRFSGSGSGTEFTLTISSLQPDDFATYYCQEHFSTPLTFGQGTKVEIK
4. HC-F105N (antibody, V domains shown) VH: EVQLVQSGAEVKKPGATVKISCKVSGYSFTGHTMNWIRQPPGKGLEWIGLIKPSNGGTSYNQKFKGRVTISADKSISTAYLQWSSLKASDTAMYYCAHGHYESYNAMDYWGQGTLVTVSS VL: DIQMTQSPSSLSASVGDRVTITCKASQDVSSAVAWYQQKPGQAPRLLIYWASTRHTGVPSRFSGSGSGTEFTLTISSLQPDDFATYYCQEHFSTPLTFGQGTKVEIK
5. HC-E102L (antibody, V domains shown) VH: EVQLVQSGAEVKKPGATVKISCKVSGYSFTGHTMNWIRQPPGKGLEWIGLIKPSNGGTSYNQKFKGRVTISADKSISTAYLQWSSLKASDTAMYYCAHGHYLSYFAMDYWGQGTLVTVSS VL: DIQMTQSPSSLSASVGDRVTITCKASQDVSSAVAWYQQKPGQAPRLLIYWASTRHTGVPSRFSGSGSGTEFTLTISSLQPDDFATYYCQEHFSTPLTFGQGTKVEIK

Response line:
1.12
1.7
1.36
2.64
2.7
